test: Drug concentration in nude mouse serum at 50 mg/kg, po administered alternative days via gavage and measured upto 4 hrs by HPLC analysis; assay type: ADME, organism-based; conditions: read-out: Drug uptake
ASSAY_METRIC: concentration at 4 h (µM)
Numeric only. Scale: µM

*Q* Given O=C(Nc1cc(C(F)(F)F)cc(C(F)(F)F)c1)N[C@@H](c1ccccc1)c1nnc(SCc2ccccc2)o1 , state its recorded concentration at 4 h.
*A* 14.8

---

experiment: Cytotoxicity against human MCF-10A cells expressing RECQL5 assessed as cell growth inhibition measured after 72 hrs by MTT assay; type: toxicity, cell-based
ASSAY_METRIC: IC20 at 72 h (µM)
Only the number, expressed in µM, is required.

*Q* Tell me the measured IC20 at 72 h of O=C(Nc1cc(C(F)(F)F)cc(C(F)(F)F)c1)N[C@@H](c1ccccc1)c1nnc(SCc2ccccc2)o1 , please.
*A* 33.4
